assay: Lipophilicity; format: physicochemical
property-label: logD

Report logD, nothing else, for this molecule: CNC(=O)c1ccc(-c2cnn3ccc(C(=O)N(C)c4ccc(Cl)c(C(=O)OC)c4)cc23)cc1 2.7

---

assay: Plasma stability; assay type: in vitro ADME; details: rat
property-label: half-life (min)
Numbers only here, please. The scale is min.

Report half-life, nothing else, for this molecule: CNC(=O)c1ccc(-c2cnn3ccc(C(=O)N(C)c4ccc(Cl)c(C(=O)OC)c4)cc23)cc1 11.6

---

assay: Liver microsomes metabolic stability; type: in vitro ADME; conditions: human, liver microsomes
property-label: microsomal CLint (µL/min/mg)
Numbers only here, please. The scale is µL/min/mg.

Report microsomal CLint, nothing else, for this molecule: CNC(=O)c1ccc(-c2cnn3ccc(C(=O)N(C)c4ccc(Cl)c(C(=O)OC)c4)cc23)cc1 222
